Assay: Aqueous solubility in buffers, 24 h shaking at 25° C., HPLC
Assay type: physicochemical
Conditions: pH 4.5 buffer, 25 °C, pH 4.5, aqueous buffer, thermodynamic from solid, 24 hours at 25° C.
Quantity Measured: solubility at 24 h (µg/mL)
Only the number, expressed in µg/mL, is required.

Prompt: Fill blank: measured solubility at 24 h of the molecule CC(C)CN(C[C@@H](O)[C@H](Cc1ccccc1)NC(=O)O[C@H]1CO[C@H]2OCC[C@H]21)S(=O)(=O)c1ccc(N)cc1 [darunavir tetrahydrofuran solvate] is ____.
Completion: 270

----------
Assay: Hygroscopicity (DVS) from 0% to 90%
Type: physicochemical
Conditions: DVS 0% to 90%, 25° C.
Quantity Measured: hygroscopicity (in words)

Prompt: Fill blank: measured hygroscopicity (in words) of the compound CC(C)CN(C[C@@H](O)[C@H](Cc1ccccc1)NC(=O)O[C@H]1CO[C@H]2OCC[C@H]21)S(=O)(=O)c1ccc(N)cc1 [darunavir ethanolate, reference compound] is ____.
Completion: hygroscopic

Prompt: Fill blank: measured hygroscopicity (in words) of the compound CC(C)CN(C[C@@H](O)[C@H](Cc1ccccc1)NC(=O)O[C@H]1CO[C@H]2OCC[C@H]21)S(=O)(=O)c1ccc(N)cc1 [amorphous darunavir] is ____.
Completion: hygroscopic

----------
Assay: Aqueous solubility in buffers, 24 h shaking at 25° C., HPLC
Type: physicochemical
Conditions: pH 1.2 buffer, 25 °C, pH 1.2, simulated gastric fluid, thermodynamic from solid, 24 hours at 25° C.; footnote *degraded
Quantity Measured: solubility at 24 h (mg/mL)
Only the number, expressed in mg/mL, is required.

Prompt: Fill blank: measured solubility at 24 h of the molecule CC(C)CN(C[C@@H](O)[C@H](Cc1ccccc1)NC(=O)O[C@H]1CO[C@H]2OCC[C@H]21)S(=O)(=O)c1ccc(N)cc1 [darunavir tetrahydrofuran solvate] is ____.
Completion: 1.47

----------
Experiment: Aqueous solubility in buffers, 24 h shaking at 25° C., HPLC
Type: physicochemical
Conditions: pH 6.8 buffer, 25 °C, pH 6.8, aqueous buffer, thermodynamic from solid, 24 hours at 25° C.
Quantity Measured: solubility at 24 h (µg/mL)
Only the number, expressed in µg/mL, is required.

Prompt: Fill blank: measured solubility at 24 h of the molecule CC(C)CN(C[C@@H](O)[C@H](Cc1ccccc1)NC(=O)O[C@H]1CO[C@H]2OCC[C@H]21)S(=O)(=O)c1ccc(N)cc1 [darunavir tetrahydrofuran solvate] is ____.
Completion: 240

----------
Test: Aqueous solubility in buffers, 24 h shaking at 25° C., HPLC
Type: physicochemical
Conditions: water, 25 °C, thermodynamic from solid, 24 hours at 25° C.
Quantity Measured: solubility at 24 h (µg/mL)
Only the number, expressed in µg/mL, is required.

Prompt: Fill blank: measured solubility at 24 h of the molecule CC(C)CN(C[C@@H](O)[C@H](Cc1ccccc1)NC(=O)O[C@H]1CO[C@H]2OCC[C@H]21)S(=O)(=O)c1ccc(N)cc1 [darunavir tetrahydrofuran solvate] is ____.
Completion: 270

----------
Assay: Hygroscopicity (DVS) from 0% to 90%
Assay type: physicochemical
Details: 25° C., 0% to 90%
Quantity Measured: weight gain from 0% to 90% (DVS)

# example entries with known answers
Prompt: Fill blank: measured weight gain from 0% to 90% (DVS) of the molecule CC(C)CN(C[C@@H](O)[C@H](Cc1ccccc1)NC(=O)O[C@H]1CO[C@H]2OCC[C@H]21)S(=O)(=O)c1ccc(N)cc1 [darunavir tetrahydrofuran solvate] is ____.
Completion: 1.366%

Prompt: Fill blank: measured weight gain from 0% to 90% (DVS) of the molecule CC(C)CN(C[C@@H](O)[C@H](Cc1ccccc1)NC(=O)O[C@H]1CO[C@H]2OCC[C@H]21)S(=O)(=O)c1ccc(N)cc1 [darunavir dimethylsulfoxide solvate] is ____.
Completion: 0.9431%

Prompt: Fill blank: measured weight gain from 0% to 90% (DVS) of the molecule CC(C)CN(C[C@@H](O)[C@H](Cc1ccccc1)NC(=O)O[C@H]1CO[C@H]2OCC[C@H]21)S(=O)(=O)c1ccc(N)cc1 [darunavir ethanolate, reference compound] is ____.
Completion: 2.180%

New cases:
Prompt: Fill blank: measured weight gain from 0% to 90% (DVS) of the molecule CC(C)CN(C[C@@H](O)[C@H](Cc1ccccc1)NC(=O)O[C@H]1CO[C@H]2OCC[C@H]21)S(=O)(=O)c1ccc(N)cc1 [amorphous darunavir] is ____.
Completion: 2.617%
